Where do these numbers come from? They come from paper PMC7168151.

# Tested on: Candida albicans (NCYC 1467)
# Format: cell-based
Where no end group is shown, it is not given here.
Could you please report measured MBC C. albicans for the items listed next?
Numbers only, in µM.

substance="GFSSLFKAGAKYLLKQVGKAGAQQL-NH2 [BR2GK(1-25)a]" target_system="Candida albicans (NCYC 1467)" value_measured=16

Please go through the list and note MBC C. albicans for each substance.
1. GFSSLFKAGAKYLRKQVGKAGAQQL-NH2 [[R^14]BR2GK(1-25)a]
2. GFSSLFKAGAKYLKKQVGKAGAQQL-NH2 [[K^14]BR2GK(1-25)a]
3. GFSSLFKAGAKYLAKQVGKAGAQQL-NH2 [[A^14]BR2GK(1-25)a]

1. 128
2. 128
3. 32
